Test system: S. aureus
method_summary: Antibiotic sensitivity (MIC) of S. aureus grown from bone incubated in the transport system, Example 3
Format: cell-based, Staphylococcus aureus
test_conditions: 05 S. aureus, bone incubated 24 hours at 37 degrees Celsius; unit assumed
Overview of recorded MIC for various compounds
Give the value in µg/mL but do not write µg/mL after it.

Look over these answered cases.
# compound, tested_on, MIC [µg/mL]
records = [
    ("CCCCCCCCCC(=O)N[C@@H](Cc1c[nH]c2ccccc12)C(=O)N[C@H](CC(N)=O)C(=O)N[C@@H](CC(=O)O)C(=O)N[C@@H]1C(=O)NCC(=O)N[C@@H](CCCN)C(=O)N[C@@H](CC(=O)O)C(=O)N[C@H](C)C(=O)N[C@@H](CC(=O)O)C(=O)NCC(=O)N[C@H](CO)C(=O)N[C@@H]([C@H](C)CC(=O)O)C(=O)N[C@@H](CC(=O)c2ccccc2N)C(=O)O[C@@H]1C", "S. aureus", 0.5),
    ("CC(=O)NC[C@H]1CN(c2ccc(N3CCOCC3)c(F)c2)C(=O)O1", "S. aureus", 2),
]

Proceeding to the next compound to report its MIC.
Notebook: pull reported MIC for S. aureus, entry CN[C@H](CC(C)C)C(=O)N[C@H]1C(=O)N[C@@H](CC(N)=O)C(=O)N[C@H]2C(=O)N[C@H]3C(=O)N[C@H](C(=O)N[C@H](C(=O)O)c4cc(O)cc(O)c4-c4cc3ccc4O)[C@H](O)c3ccc(c(Cl)c3)Oc3cc2cc(c3O[C@@H]2O[C@H](CO)[C@@H](O)[C@H](O)[C@H]2O[C@H]2C[C@](C)(N)[C@H](O)[C@H](C)O2)Oc2ccc(cc2Cl)[C@H]1O
1

----------
Listed here: items and their measured MIC.
Tested on: Klebsiella oxytoca
method_summary: Antibiotic sensitivity (MIC) of Klebsiella oxytoca isolated from sputum, Example 2
Type: cell-based
test_conditions: Klebsiella oxytoca isolate from experimental sputum sample

# compound, observed
rows = [
    ("CN(C)[C@@H]1C(O)=C(C(N)=O)C(=O)[C@@]2(O)C(O)=C3C(=O)c4c(O)cccc4[C@@](C)(O)[C@H]3C[C@@H]12", "≤ 4 µg/mL"),
]

Would you kindly share the measured MIC for CO/N=C(\C(=O)N[C@@H]1C(=O)N2C(C(=O)[O-])=C(C[N+]3(C)CCCC3)CS[C@H]12)c1csc(N)n1 [Cefepime] ?
≤ 2 µg/mL

Let us now turn to NC[C@H]1O[C@H](O[C@H]2[C@H](O)[C@@H](O[C@H]3O[C@H](CO)[C@@H](O)[C@H](N)[C@H]3O)[C@H](N)C[C@@H]2N)[C@H](N)C[C@@H]1O
≤ 1 µg/mL

Field entry: NCC[C@H](O)C(=O)N[C@@H]1C[C@H](N)[C@@H](O[C@H]2O[C@H](CN)[C@@H](O)[C@H](O)[C@H]2O)[C@H](O)[C@H]1O[C@H]1O[C@H](CO)[C@@H](O)[C@H](N)[C@H]1O
≤ 16 µg/mL

Another compound to look at: CO[C@@]1(NC(=O)Cc2cccs2)C(=O)N2C(C(=O)O)=C(COC(N)=O)CS[C@@H]21
≤ 8 µg/mL

Also O=C(O)c1cn(C2CC2)c2cc(N3CCNCC3)c(F)cc2c1=O , if possible.
≤ 1 µg/mL
